- assay name: protein stability index of a GFP-peptide fusion (yeast GPS) (PSI 1-4); higher = more stable; sorted into four equal gates, so the index is relative within each strain
- recorded conditions: ubr1∆
Threshold check on protein stability index: at or above 2 gives Fulfilled, strictly below gives Not fulfilled.

{"columns": ["residue string", "class label"],
 "data": [
  ["RGKNEIIQNAQRDAVTL [RPO21]", "Fulfilled"],
  ["YNNRSLLDFNTALKQYE [RPN6]", "Fulfilled"],
  ["KLELINRYAYVLSSLMF [LRP1]", "Fulfilled"],
  ["RQMNLVITLLNNSSITL [YCS4]", "Not fulfilled"],
  ["ELSEEKYIVKASSGPRY [RPT4]", "Fulfilled"],
  ["KPLGLDRYGNRYFWLDH [ITC1]", "Fulfilled"],
  ["LAFIPNILALNLVSLLI [YML031W/NDC1]", "Not fulfilled"]
]}

====

- assay name: protein stability index of a GFP-peptide fusion (yeast GPS) (PSI 1-4); higher = more stable; sorted into four equal gates, so the index is relative within each strain
- recorded conditions: doa10∆

{"columns": ["residue string", "protein stability index"],
 "data": [
  ["MSEEGPQVKIREASKDN [RPB3]", 3.18],
  ["KINSWDQVLVKGGEQIS [YJL041W/NSP1]", 2.04],
  ["LKNKREIYRISFQLSKI [RPS9B]", 3.34],
  ["LMYSITFHHHGRQTVLI [SRB2]", 3],
  ["VNETEAILYTKPGHVLQ [YGR119C/NUP57]", 3],
  ["GKKVLNKNQLLKRNRIR [POP1]", 2.88],
  ["TKEMDEVEEDDEDDDQP [SWI3]", 3.39],
  ["QMMQQAQQKLKQNPGLM [SRP54]", 2.83],
  ["FEAAVKMSDGFNGADIR [RPT4]", 3.66],
  ["NKLMEKDFQVNKEIKPY [SIR4]", 3.35],
  ["IDEHIDLGIKYDPSIGI [RPL11A]", 2.84],
  ["YTQQQALEYIGAKVKTM [RET1]", 1.97],
  ["GKHLSYQRSKRVNNPNV [RPL33A]", 2.32],
  ["CLTKFQDEEQTEHLTEL [YCG1]", 3.33]
]}

====

- assay name: protein stability index of a GFP-peptide fusion (yeast GPS) (PSI 1-4); higher = more stable; sorted into four equal gates, so the index is relative within each strain
- recorded conditions: ubr1∆
Threshold check on protein stability index: at or above 3 gives MET, strictly below gives NOT MET.

{"columns": ["residue string", "class label"],
 "data": [
  ["ANFGEILEDFRVIKDFK [YMR153W/NUP53]", "MET"],
  ["NVVEVMDMNEIEDKENS [RPT5]", "NOT MET"],
  ["ERESSGAKDAEKSGISK [RPC17]", "MET"],
  ["PAFSNSNGFNNVTFGSK [YMR153W/NUP53]", "MET"],
  ["TPMDESSYDLLFNESFI [SRP72]", "MET"]
]}

====

- assay name: protein stability index of a GFP-peptide fusion (yeast GPS) (PSI 1-4); higher = more stable; sorted into four equal gates, so the index is relative within each strain
- recorded conditions: san1∆
observation type: protein stability index

{"columns": ["residue string", "readout number"],
 "data": [
  ["TEALLLEHDVEYRPFSK [DIS3]", 3.17],
  ["DVKKRTYEAIDVPGREL [RPB2]", 2.62],
  ["ANRVTDKLTRVHDKIWC [PRE3]", 2.38],
  ["LLAVAIAASYHYPEIED [RPP0]", 1.73],
  ["SRKGIAFGLGAIMSKSS [ECM29]", 1.64],
  ["MQPFDSGHDDLVHDVVY [YGL100W/SEH1]", 3.13],
  ["HNVFSKEQTIQLPSKFT [RPN14]", 2.43],
  ["RQPANTKIGAKRIHSVR [RPS8A]", 2.74],
  ["EDPNSAAFDEVEYKLTF [DIS3]", 1.17],
  ["MNEMCKKINAKEKLIGW [RPN8]", 3.03],
  ["MAKDIEISASESKFILE [RRP45]", 2.99],
  ["STFGFNNSAPNNTNNAN [YJL041W/NSP1]", 2.96],
  ["EDFEHNNLSSMNLDFDI [MCD1]", 3.24],
  ["NQQAQARQQVAQQLRNQ [GAL11]", 2.45]
]}

====

- assay name: protein stability index of a GFP-peptide fusion (yeast GPS) (PSI 1-4); higher = more stable; sorted into four equal gates, so the index is relative within each strain
- recorded conditions: san1∆
Listed here: items and their measured protein stability index.
observation type: protein stability index

{"columns": ["residue string", "readout number"],
 "data": [
  ["TLSNGLIASHYGVSFFT [BRR2]", 2.39],
  ["IKKVICGAWEPAITIEK [SIR3]", 2.47],
  ["KLKDSKKLFQKKENLTR [YML103C/NUP188]", 2.97],
  ["LSSAGAKSTVETFISSM [RIP1]", 2.86],
  ["NYVAVGDVSNLPYLDEL [QCR2]", 2.97],
  ["AQYFYSGAYSYPDFRHY [DIS3]", 1.87],
  ["QEEFVQFLQLDNDGFSF [ECM29]", 1.93],
  ["NTGLLNKANIQALIHGL [RPN11]", 2.09]
]}

====

- assay name: protein stability index of a GFP-peptide fusion (yeast GPS) (PSI 1-4); higher = more stable; sorted into four equal gates, so the index is relative within each strain
- recorded conditions: ubr1∆
observation type: protein stability index

{"columns": ["residue string", "observation type", "readout number"],
 "data": [
  ["TKRVEKPQLKFKSPIDN [RRP6]", "protein stability index", 3.14],
  ["MANKEWRVREASTSALL [ECM29]", "protein stability index", 2.26],
  ["DNDTVVTNDDKSDDDDH [SRB8]", "protein stability index", 3.19],
  ["NPLMYSGGNNTATIINN [PCI8]", "protein stability index", 3.11],
  ["RGIPRISTLFQRDRHTL [PRP8]", "protein stability index", 2.68],
  ["TITIKSYHLWPSFTDEQ [PRP8]", "protein stability index", 2.51],
  ["YDVLHDVFTINPHQKDQ [YML103C/NUP188]", "protein stability index", 2.61],
  ["NKANIQALIHGLNRHYY [RPN11]", "protein stability index", 2.37],
  ["QRDAEISQPKSMSGRIS [BRR2]", "protein stability index", 3.18],
  ["VGEMKLLKKKDDPSKVR [YLR335W/NUP2]", "protein stability index", 2.74],
  ["KLEYPHTDVSSSLEARY [RPN3]", "protein stability index", 2.9],
  ["TLRCSVVEACGNIVAEL [YCS4]", "protein stability index", 1.55],
  ["TLSTHSTTTSVNGSTTA [SIN4]", "protein stability index", 2.93],
  ["ISIKDNKLVMKSKFNKS [GAL11]", "protein stability index", 2.08],
  ["KSKAEELTQVPSARQKY [UBP6]", "protein stability index", 2.37],
  ["YHLHPTFANPNRTFTDP [TAF14]", "protein stability index", 1.7],
  ["SPYAAMLAAQDVAAKCK [RPS14A]", "protein stability index", 1.88],
  ["IIPQDILDCVVTNSMRQ [YJR042W/NUP85]", "protein stability index", 2.94],
  ["SCKDSQLKWAQNTIDDT [YIL149C/MLP2]", "protein stability index", 2.74],
  ["LEELAETFQDTFSGALG [FAS2]", "protein stability index", 3.31],
  ["NTGLLNKANIQALIHGL [RPN11]", "protein stability index", 2.67],
  ["KKGESEKDASGKPSFVF [YOR098C/NUP1]", "protein stability index", 2.23],
  ["SDSEDSDAKEQHQSLSR [ESC2]", "protein stability index", 2.52],
  ["LVSLLDENDSKKNNAAS [YAR002W/NUP60]", "protein stability index", 3.08],
  ["KTKLWGFKWLNKLDEYH [LIN1]", "protein stability index", 3.22],
  ["QGEVGAVFIVPKILIRE [SWP82]", "protein stability index", 2.13],
  ["KTHRGLRKVACIGAWHP [RPL3]", "protein stability index", 2.92],
  ["LAHSQHRCAIRSGALIK [SSN2]", "protein stability index", 1.16],
  ["RLFNVVVQDSQTATQLL [SMC2]", "protein stability index", 2.44],
  ["FLVRYACEPTAEKFVPI [SIR3]", "protein stability index", 2.91]
]}
